System: Escherichia coli TOP10
Test: shrunken log2 fold change of peptide-encoding DNA abundance (4.5 h post-induction vs induction); higher = less antimicrobial activity (less host growth inhibition)
Conditions: time post-induction: 4.5 h; library: site-saturation at positions 5, 18, 19, 20
readoutLabel: shrunken log2 fold change

Ask | Form field - read-out: shrunken log2 fold change; system: Escherichia coli TOP10; submitted item: "RRIRERPPRLPRPRPRPARTPRP"
Reply | 0.0417

Ask | Form field - read-out: shrunken log2 fold change; system: Escherichia coli TOP10; submitted item: "RRIRSRPPRLPRPRPRPPSWPRP"
Reply | 0.482

Ask | Form field - read-out: shrunken log2 fold change; system: Escherichia coli TOP10; submitted item: "RRIRQRPPRLPRPRPRPAREPRP"
Reply | -0.0167

Ask | Form field - read-out: shrunken log2 fold change; system: Escherichia coli TOP10; submitted item: "RRIRIRPPRLPRPRPRPPQVPRP"
Reply | 0.328

Ask | Form field - read-out: shrunken log2 fold change; system: Escherichia coli TOP10; submitted item: "RRIRGRPPRLPRPRPRPLMFPRP"
Reply | 0.603

Ask | Form field - read-out: shrunken log2 fold change; system: Escherichia coli TOP10; submitted item: "RRIRDRPPRLPRPRPRPFQMPRP"
Reply | -0.57

Ask | Form field - read-out: shrunken log2 fold change; system: Escherichia coli TOP10; submitted item: "RRIRERPPRLPRPRPRPDTTPRP"
Reply | 0.0503

Ask | Form field - read-out: shrunken log2 fold change; system: Escherichia coli TOP10; submitted item: "RRIRPRPPRLPRPRPRPNAWPRP"
Reply | 0.356

Ask | Form field - read-out: shrunken log2 fold change; system: Escherichia coli TOP10; submitted item: "RRIRKRPPRLPRPRPRPKCHPRP"
Reply | 0.182

Ask | Form field - read-out: shrunken log2 fold change; system: Escherichia coli TOP10; submitted item: "RRIRHRPPRLPRPRPRPVLIPRP"
Reply | -0.113

Ask | Form field - read-out: shrunken log2 fold change; system: Escherichia coli TOP10; submitted item: "RRIRFRPPRLPRPRPRPANLPRP"
Reply | -0.296

Ask | Form field - read-out: shrunken log2 fold change; system: Escherichia coli TOP10; submitted item: "RRIRPRPPRLPRPRPRPILFPRP"
Reply | -0.124

Ask | Form field - read-out: shrunken log2 fold change; system: Escherichia coli TOP10; submitted item: "RRIRERPPRLPRPRPRPHKLPRP"
Reply | -0.635

Ask | Form field - read-out: shrunken log2 fold change; system: Escherichia coli TOP10; submitted item: "RRIRIRPPRLPRPRPRPINAPRP"
Reply | -0.431

Ask | Form field - read-out: shrunken log2 fold change; system: Escherichia coli TOP10; submitted item: "RRIRARPPRLPRPRPRPWRNPRP"
Reply | -0.0929

Ask | Form field - read-out: shrunken log2 fold change; system: Escherichia coli TOP10; submitted item: "RRIRLRPPRLPRPRPRPTWSPRP"
Reply | 0.201

Ask | Form field - read-out: shrunken log2 fold change; system: Escherichia coli TOP10; submitted item: "RRIRTRPPRLPRPRPRPCINPRP"
Reply | -0.686

Ask | Form field - read-out: shrunken log2 fold change; system: Escherichia coli TOP10; submitted item: "RRIRCRPPRLPRPRPRPWDQPRP"
Reply | 0.0182

Ask | Form field - read-out: shrunken log2 fold change; system: Escherichia coli TOP10; submitted item: "RRIRIRPPRLPRPRPRPWHWPRP"
Reply | -0.0771

Ask | Form field - read-out: shrunken log2 fold change; system: Escherichia coli TOP10; submitted item: "RRIRGRPPRLPRPRPRPYPPPRP"
Reply | -0.0824

Ask | Form field - read-out: shrunken log2 fold change; system: Escherichia coli TOP10; submitted item: "RRIRNRPPRLPRPRPRPRVPPRP"
Reply | -0.134

Ask | Form field - read-out: shrunken log2 fold change; system: Escherichia coli TOP10; submitted item: "RRIRKRPPRLPRPRPRPCWRPRP"
Reply | 0.183

Ask | Form field - read-out: shrunken log2 fold change; system: Escherichia coli TOP10; submitted item: "RRIRDRPPRLPRPRPRPAPAPRP"
Reply | 0.661

Ask | Form field - read-out: shrunken log2 fold change; system: Escherichia coli TOP10; submitted item: "RRIRKRPPRLPRPRPRPQSIPRP"
Reply | 0.147

Ask | Form field - read-out: shrunken log2 fold change; system: Escherichia coli TOP10; submitted item: "RRIRNRPPRLPRPRPRPIDNPRP"
Reply | -0.0163

Ask | Form field - read-out: shrunken log2 fold change; system: Escherichia coli TOP10; submitted item: "RRIRARPPRLPRPRPRPEPWPRP"
Reply | 0.742

Ask | Form field - read-out: shrunken log2 fold change; system: Escherichia coli TOP10; submitted item: "RRIRMRPPRLPRPRPRPANMPRP"
Reply | -0.203

Ask | Form field - read-out: shrunken log2 fold change; system: Escherichia coli TOP10; submitted item: "RRIRYRPPRLPRPRPRPNIQPRP"
Reply | -1.58

Ask | Form field - read-out: shrunken log2 fold change; system: Escherichia coli TOP10; submitted item: "RRIRGRPPRLPRPRPRPFSCPRP"
Reply | -0.262

Ask | Form field - read-out: shrunken log2 fold change; system: Escherichia coli TOP10; submitted item: "RRIRNRPPRLPRPRPRPPVVPRP"
Reply | 0.000966

Ask | Form field - read-out: shrunken log2 fold change; system: Escherichia coli TOP10; submitted item: "RRIRLRPPRLPRPRPRPIPYPRP"
Reply | -0.401

Ask | Form field - read-out: shrunken log2 fold change; system: Escherichia coli TOP10; submitted item: "RRIRDRPPRLPRPRPRPGQHPRP"
Reply | -0.121

###

Tested on: Escherichia coli TOP10
Test: shrunken log2 fold change of peptide-encoding DNA abundance (4.5 h post-induction vs induction); higher = less antimicrobial activity (less host growth inhibition)
Settings: time post-induction: 4.5 h; library: site-saturation at positions 5, 18, 19, 20
readoutLabel: shrunken log2 fold change
Give only the figure.

Ask | Form field - read-out: shrunken log2 fold change; system: Escherichia coli TOP10; submitted item: "RRIRSRPPRLPRPRPRPECVPRP"
Reply | 0.673

Ask | Form field - read-out: shrunken log2 fold change; system: Escherichia coli TOP10; submitted item: "RRIRGRPPRLPRPRPRPWPPPRP"
Reply | 0.663

Ask | Form field - read-out: shrunken log2 fold change; system: Escherichia coli TOP10; submitted item: "RRIRVRPPRLPRPRPRPGIRPRP"
Reply | -0.0476

Ask | Form field - read-out: shrunken log2 fold change; system: Escherichia coli TOP10; submitted item: "RRIRGRPPRLPRPRPRPQGGPRP"
Reply | 0.127

Ask | Form field - read-out: shrunken log2 fold change; system: Escherichia coli TOP10; submitted item: "RRIRERPPRLPRPRPRPHRYPRP"
Reply | 0.0893

Ask | Form field - read-out: shrunken log2 fold change; system: Escherichia coli TOP10; submitted item: "RRIRARPPRLPRPRPRPPDFPRP"
Reply | 0.708

Ask | Form field - read-out: shrunken log2 fold change; system: Escherichia coli TOP10; submitted item: "RRIRFRPPRLPRPRPRPCNHPRP"
Reply | -0.41

Ask | Form field - read-out: shrunken log2 fold change; system: Escherichia coli TOP10; submitted item: "RRIRTRPPRLPRPRPRPVENPRP"
Reply | -0.146

Ask | Form field - read-out: shrunken log2 fold change; system: Escherichia coli TOP10; submitted item: "RRIRLRPPRLPRPRPRPKTNPRP"
Reply | -0.0556

Ask | Form field - read-out: shrunken log2 fold change; system: Escherichia coli TOP10; submitted item: "RRIRNRPPRLPRPRPRPMKTPRP"
Reply | -0.0393

Ask | Form field - read-out: shrunken log2 fold change; system: Escherichia coli TOP10; submitted item: "RRIRGRPPRLPRPRPRPSLGPRP"
Reply | 0.488

Ask | Form field - read-out: shrunken log2 fold change; system: Escherichia coli TOP10; submitted item: "RRIRTRPPRLPRPRPRPGKNPRP"
Reply | -0.24

Ask | Form field - read-out: shrunken log2 fold change; system: Escherichia coli TOP10; submitted item: "RRIRLRPPRLPRPRPRPTIDPRP"
Reply | -0.521

Ask | Form field - read-out: shrunken log2 fold change; system: Escherichia coli TOP10; submitted item: "RRIRQRPPRLPRPRPRPISYPRP"
Reply | 0.0146

Ask | Form field - read-out: shrunken log2 fold change; system: Escherichia coli TOP10; submitted item: "RRIRCRPPRLPRPRPRPWWKPRP"
Reply | -0.334

###

Tested on: Escherichia coli TOP10;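 also: peptides expressed intracellularly from a pBAD plasmid library in pooled LB shake-flask culture, induced with 0.3% L-arabinose, DNA abundance read by NGS, three biological replicates, DESeq2 with apeglm shrinkage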
Experiment: shrunken log2 fold change of peptide-encoding DNA abundance (4.5 h post-induction vs induction); higher = less antimicrobial activity (less host growth inhibition)
Details: time post-induction: 4.5 h; library: site-saturation at positions 5, 18, 19, 20
Binary call on shrunken log2 fold change: 1 (yes) from 0.09 upward, 0 (no) beneath that.

Ask | Is the recorded value of shrunken log2 fold change equal to or greater than 0.09 for this sequence? "RRIRQRPPRLPRPRPRPIQQPRP"
Reply | 0 (no)

Ask | Is the recorded value of shrunken log2 fold change equal to or greater than 0.09 for this sequence? "RRIRWRPPRLPRPRPRPSSLPRP"
Reply | 1 (yes)

Ask | Is the recorded value of shrunken log2 fold change equal to or greater than 0.09 for this sequence? "RRIRSRPPRLPRPRPRPVVDPRP"
Reply | 1 (yes)

Ask | Is the recorded value of shrunken log2 fold change equal to or greater than 0.09 for this sequence? "RRIRNRPPRLPRPRPRPFRLPRP"
Reply | 0 (no)

Ask | Is the recorded value of shrunken log2 fold change equal to or greater than 0.09 for this sequence? "RRIRGRPPRLPRPRPRPQSDPRP"
Reply | 1 (yes)

Ask | Is the recorded value of shrunken log2 fold change equal to or greater than 0.09 for this sequence? "RRIRARPPRLPRPRPRPVSVPRP"
Reply | 1 (yes)

Ask | Is the recorded value of shrunken log2 fold change equal to or greater than 0.09 for this sequence? "RRIRCRPPRLPRPRPRPCSKPRP"
Reply | 0 (no)

Ask | Is the recorded value of shrunken log2 fold change equal to or greater than 0.09 for this sequence? "RRIRMRPPRLPRPRPRPITNPRP"
Reply | 0 (no)

Ask | Is the recorded value of shrunken log2 fold change equal to or greater than 0.09 for this sequence? "RRIRARPPRLPRPRPRPHNKPRP"
Reply | 0 (no)

Ask | Is the recorded value of shrunken log2 fold change equal to or greater than 0.09 for this sequence? "RRIRTRPPRLPRPRPRPEVWPRP"
Reply | 1 (yes)

Ask | Is the recorded value of shrunken log2 fold change equal to or greater than 0.09 for this sequence? "RRIRPRPPRLPRPRPRPPLTPRP"
Reply | 1 (yes)

Ask | Is the recorded value of shrunken log2 fold change equal to or greater than 0.09 for this sequence? "RRIRLRPPRLPRPRPRPQQPPRP"
Reply | 0 (no)

Ask | Is the recorded value of shrunken log2 fold change equal to or greater than 0.09 for this sequence? "RRIRMRPPRLPRPRPRPEGDPRP"
Reply | 1 (yes)

Ask | Is the recorded value of shrunken log2 fold change equal to or greater than 0.09 for this sequence? "RRIRYRPPRLPRPRPRPAYFPRP"
Reply | 0 (no)
